details: 313.15 K; 100 kPa; Liquid; Vibrating tube method
Numbers after ± are expanded uncertainties.
mass density reference
endpoint: mass density

1) CC(C)=O [acetone] | 767 ± 3 kg/m3
2) CC#N [acetonitrile] | 760 ± 3 kg/m3
3) C[S+](C)[O-] [dimethyl sulfoxide] | 1080 ± 3 kg/m3
4) CC(=O)CC(C)C [4-methylpentan-2-one] | 782 ± 3 kg/m3

---

settings: 313.15 K; 100 kPa; Liquid; Frequency=3 MHz; Single path-length method
endpoint: speed of sound (m/s)

1) CC(C)=O | 1094.6
2) C1CCCCC1 | 1181.8
3) CC#N | 1218.4
4) C[S+](C)[O-] [dimethyl sulfoxide] | 1437.4
5) CC(=O)CC(C)C | 1131.4
